All figures here come from patent US20110046068A1.

assayed.target: human gpr-54 receptor (human, UniProt Q969F8 1-398)
Sequence (Q969F8 whole entry): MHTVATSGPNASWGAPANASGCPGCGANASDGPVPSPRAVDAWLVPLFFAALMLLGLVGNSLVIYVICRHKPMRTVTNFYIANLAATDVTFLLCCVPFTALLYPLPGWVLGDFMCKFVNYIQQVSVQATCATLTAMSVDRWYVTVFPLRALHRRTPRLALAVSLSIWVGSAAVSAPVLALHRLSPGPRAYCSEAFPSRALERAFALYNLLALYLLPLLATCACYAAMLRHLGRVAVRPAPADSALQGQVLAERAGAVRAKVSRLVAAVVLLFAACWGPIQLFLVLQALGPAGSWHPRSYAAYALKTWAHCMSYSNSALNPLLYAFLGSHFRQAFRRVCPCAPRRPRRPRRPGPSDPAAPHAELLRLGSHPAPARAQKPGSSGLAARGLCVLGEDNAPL
assay.overview: cell-based or functional assay
Non-standard residues stand in square brackets, D forms with d. No end group written: not given here.
The label is Condition met for Inhibition of IP stimulation by 10nM Agonist: % Inhibition of Max below 70% and Condition not met for Inhibition of IP stimulation by 10nM Agonist: % Inhibition of Max equal to or exceeding 70%.

>>> class_name("Ac-[dA]NWNSFG[dW]RF-NH2 (SMILES CC(=O)N[C@H](C)C(=O)N[C@@H](CC(N)=O)C(=O)N[C@@H](Cc1c[nH]c2ccccc12)C(=O)N[C@@H](CC(N)=O)C(=O)N[C@@H](CO)C(=O)N[C@@H](Cc1ccccc1)C(=O)NCC(=O)N[C@H](Cc1c[nH]c2ccccc12)C(=O)N[C@@H](CCCNC(=N)N)C(=O)N[C@@H](Cc1ccccc1)C(N)=O) [247]")
"Condition not met"
>>> class_name("Ac-[dA]NWNPFG[dW]RF-NH2 (SMILES CC(=O)N[C@H](C)C(=O)N[C@@H](CC(N)=O)C(=O)N[C@@H](Cc1c[nH]c2ccccc12)C(=O)N[C@@H](CC(N)=O)C(=O)N1CCC[C@H]1C(=O)N[C@@H](Cc1ccccc1)C(=O)NCC(=O)N[C@H](Cc1c[nH]c2ccccc12)C(=O)N[C@@H](CCCNC(=N)N)C(=O)N[C@@H](Cc1ccccc1)C(N)=O) [274]")
"Condition not met"
>>> class_name("Ac-FG[dF]RF-NH2 (SMILES CC(=O)N[C@@H](Cc1ccccc1)C(=O)NCC(=O)N[C@H](Cc1ccccc1)C(=O)N[C@@H](CCCNC(=N)N)C(=O)N[C@@H](Cc1ccccc1)C(N)=O, kisspeptin-10 analogue; also called acFG[(D)-F]RF) [207]")
"Condition met"
>>> class_name("YNWNGFG[dL]RF-NH2 (N-terminus assumed; SMILES CC(C)C[C@@H](NC(=O)CNC(=O)[C@H](Cc1ccccc1)NC(=O)CNC(=O)[C@H](CC(N)=O)NC(=O)[C@H](Cc1c[nH]c2ccccc12)NC(=O)[C@H](CC(N)=O)NC(=O)[C@@H](N)Cc1ccc(O)cc1)C(=O)N[C@@H](CCCNC(=N)N)C(=O)N[C@@H](Cc1ccccc1)C(N)=O, kisspeptin-10 analogue; also called Peptide 209; YNWNGFG[(D)-L]RF) [209]")
"Condition not met"
>>> class_name("YNWNG[dW]GLRF-NH2 (N-terminus assumed; SMILES CC(C)C[C@H](NC(=O)CNC(=O)[C@@H](Cc1c[nH]c2ccccc12)NC(=O)CNC(=O)[C@H](CC(N)=O)NC(=O)[C@H](Cc1c[nH]c2ccccc12)NC(=O)[C@H](CC(N)=O)NC(=O)[C@@H](N)Cc1ccc(O)cc1)C(=O)N[C@@H](CCCNC(=N)N)C(=O)N[C@@H](Cc1ccccc1)C(N)=O, kisspeptin-10 analogue; also called YNWNG[(D)-W]GLRF) [212]")
"Condition not met"
